System: UO-31 renal
test: NCI tumour cell line growth inhibition, 48 h
measurement type: TGI

[[record]]
compound = "CC(/C=C/c1ccccc1)=N\\NC(N)=S"
target_desc = "UO-31 renal"
reported_result = "> 100 µM"

[[record]]
compound = "Cc1cnc2c(c1)C(=O)C1=C(OC(C)(C)CC1O)C2=O (centres undefined)"
target_desc = "UO-31 renal"
reported_result = "29.7 µM"

[[record]]
compound = "C[CH2][Ge]([CH2]C)([CH2]C)[O]C(=O)CCC(=O)[O][Ge]([CH2]C)([CH2]C)[CH2]C"
target_desc = "UO-31 renal"
reported_result = "> 100 µM"

[[record]]
compound = "O=[N+]([O-])c1ccc(/C=C/c2csnn2)cc1"
target_desc = "UO-31 renal"
reported_result = "> 100 µM"

[[record]]
compound = "O=C(Cc1nc2ncccc2[nH]c1=O)c1c[nH]c2ccccc12"
target_desc = "UO-31 renal"
reported_result = "32.5 µM"


Query: Given `CCCNC(=O)c1ccc(Cl)cc1Cl` , respond with its TGI.
Reply: > 100 µM

Query: Consider the compound C=CC1(NS(=O)(=O)c2ccc(C)cc2)CCC(C(C)(C)C)CC1 (centres undefined) . State its measured TGI.
Reply: > 100 µM

Query: Respond only with TGI recorded for `CCCCNC(=O)Oc1ccc(/C(=C(/C)Cc2ccc(OC)cc2)c2ccc(OCCN3CCCC3)cc2)cc1`
Reply: 3.22 µM

---

System: UACC-62 melanoma
test: NCI tumour cell line growth inhibition, 48 h
Where a SMILES comes first, the peptide text is derived from it.
Catalogue of compounds with associated TGI

Query: For the compound `CCN(CC)C(=O)N1CCN(C=S)CC1` , give its measured TGI value.
Reply: > 100 µM

Query: Give reported TGI value for CCC(C)C1NC(=O)C2CCCN2C(=O)CNC(=O)C(C)NC(=O)C(Cc2ccccc2)NC(=O)C(C(C)C)NC1=O (stereo unspecified) (cyclo(GPIVFA); configuration not given here)
Reply: > 100 µM

Query: # return recorded TGI for entry `Cc1ccc(C(O)(c2ccc(C)cc2)c2ccccn2)cc1`
Reply: > 100 µM

Query: Supply TGI value. Item: CC1(C)C2CC3C4CC5(Nc6ccccc6C5N41)[C@]3(C)CC2=O (stereo partly specified)
Reply: > 50 µM

Query: Check the records and state TGI for `N#Cc1c(O)c(N=Nc2ccc(Cl)cc2)c(=O)n2c1[nH]c1ccccc12`
Reply: > 100 µM

Query: Item `O=[N+]([O-])c1ccc(/C=C/c2csnn2)cc1` : provide TGI
Reply: > 100 µM

---

System: SK-MEL-2 melanoma
test: NCI tumour cell line growth inhibition, 48 h
measurement type: TGI (µM)
Quick note: give the figure in µM, leave out the unit.

[[record]]
compound_smiles = "Oc1cccc(/C=N/Nc2nnc(N/N=C/c3cccc(O)c3)c3ccccc23)c1"
measurement_type = "TGI"
reported_result = 83.6


Could you now look at the following compound, please?
Query: Look up TGI of `CCCCNC(=O)Oc1ccc(/C(=C(/C)Cc2ccc(OC)cc2)c2ccc(OCCN3CCCC3)cc2)cc1` and report it.
Reply: 4.23

---

Test system: NCI-H460 lung
test: NCI tumour cell line growth inhibition, 48 h
Where a SMILES comes first, the peptide text is derived from it.
measurement type: TGI

Recorded TGI, per entry:
[[record]]
compound = "O=[N+]([O-])c1ccccc1C=NC12CC3CC(CC(C3)C1)C2"
reported_result = "> 100 µM"

[[record]]
compound = "O=C(NCCN1CCCCC1)c1ccc(I)cc1"
reported_result = "> 100 µM"

[[record]]
compound = "COc1ccc2c(Cl)cc(NC(=O)Nc3c(C)cccc3C)nc2c1"
reported_result = "> 100 µM"

[[record]]
compound = "CCC(C)C1NC(=O)C2CCCN2C(=O)CNC(=O)C(C)NC(=O)C(Cc2ccccc2)NC(=O)C(C(C)C)NC1=O (stereo unspecified) (cyclo(GPIVFA); configuration not given here)"
reported_result = "> 100 µM"

[[record]]
compound = "CN[C@@H](C)[C@H](N)c1ccccc1"
reported_result = "> 100 µM"

[[record]]
compound = "COc1cc(-c2cc(/C=C/C(=O)c3ccc(Cl)c(Cl)c3)[nH]n2)cc(OC)c1OC"
reported_result = "36.6 µM"

[[record]]
compound = "O=C(O)CNn1c(SCC(=O)O)nnc(/C=C/c2c(O)ccc3ccccc23)c1=O"
reported_result = "> 100 µM"

[[record]]
compound = "COC(=O)N/N=C(/CCC(=O)Nc1ccc(C)c(C)c1)CC(=O)C(C)(C)C"
reported_result = "> 100 µM"

[[record]]
compound = "C[C@@H]1C2=CC[C@@]3(C)C(CCC3[C@H](C)[C@H]3C[C@@]4(C)O[C@@](c5cccnc5)(O3)OC4(C)C)[C@@H]2C2OC2[C@@]12CCC(=O)O2 (stereo partly specified)"
reported_result = "> 100 µM"

[[record]]
compound = "CCCCCCCCCCCCCCCC(=O)OCC1OC(OC)C2NP(=O)(N(CCCl)CCCl)OC1C2O (stereo unspecified)"
reported_result = "14.5 µM"


Please turn your attention to the following entry.
Query: Quick one: give measured TGI for Cc1cccc(N2C(=O)C(=O)C(c3nc4ccccc4s3)/C(=N/NC(=S)NN)C2=O)c1C (stereo unspecified)
Reply: > 100 µM

---

// reported TGI for each item listed
Test system: M14 melanoma
test: NCI tumour cell line growth inhibition, 48 h
Where a SMILES comes first, the peptide text is derived from it.

[[record]]
compound = "CC(C)(C)OC/C=C1\\C(=O)O[C@H]2C[C@@H](O[Si](C)(C)C(C)(C)C)C[C@@H]12"
reported_result = "> 100 µM"

[[record]]
compound = "O=c1[nH]nc(Cn2c3ccc(Br)cc3c3nc4ccccc4nc32)n1C1CCCCC1"
reported_result = "> 100 µM"

[[record]]
compound = "CCC(C)C1NC(=O)C2CCCN2C(=O)CNC(=O)C(C)NC(=O)C(Cc2ccccc2)NC(=O)C(C(C)C)NC1=O (centres undefined) (cyclo(GPIVFA); configuration not given here)"
reported_result = "> 100 µM"

[[record]]
compound = "O=C(CN1CCOCC1)c1ccc2c(c1)oc(=O)n2CCN1CCCC1"
reported_result = "> 100 µM"

[[record]]
compound = "COc1ccc(/C=c2/sc3n(c2=O)NC2(CCC(C)CC2)NN=3)cc1 (centres undefined)"
reported_result = "> 100 µM"

[[record]]
compound = "Oc1ccccc1C1=NOC(c2ccc(C(F)(F)F)cc2)C1 (centres undefined)"
reported_result = "> 50 µM"

[[record]]
compound = "Fc1cccc(Cl)c1C1SCc2nc3cc4ccccc4cc3n21 (centres undefined)"
reported_result = "> 100 µM"

[[record]]
compound = "COc1cc([C@@]23OC[C@@H]4[C@@H](OC[C@@H]42)c2cc4c(cc23)OCO4)cc(OC)c1OC"
reported_result = "> 100 µM"


Query: Specify TGI for `O=C1Nc2ccccc2/C1=C\c1nc(C2CCN(S(=O)(=O)c3ccc(F)cc3)CC2)n2ccccc12` and stop.
Reply: > 100 µM

---

System: HCC-2998 colon
test: NCI tumour cell line growth inhibition, 48 h
measurement type: log10 of TGI (log10 of the value in µM)
log10 TGI, µM

Examples with answers:
[[record]]
compound = "CC1=CC(C)C(C)N(CCNS(=O)(=O)c2ccc(C)cc2)c2ccccc21 (centres undefined)"
reported_result = 1.48

[[record]]
compound = "COC(=O)/C=C1/SC(N2N=C(c3cccs3)CC2c2ccc(F)cc2)=NC1=O (centres undefined)"
reported_result = 0.55

[[record]]
compound = "COc1ccc2c(c1)CCCN2S(=O)(=O)c1ccccc1[N+](=O)[O-]"
reported_result = 1.93


Query: Please respond with reported log10 of TGI (system HCC-2998 colon) for `O=C1N[C@@H]2c3c(Br)sc(Br)c3C(=O)[C@@H]2O1` .
Reply: 1.03

Query: Give the observed log10 of TGI of `CN1C=Cc2nccc3cc4c(c1c23)OCO4` for HCC-2998 colon.
Reply: 1.48

Query: State recorded log10 of TGI with HCC-2998 colon, entry COc1cccc2c1C(=O)c1c(O)c3c(c(O)c1C2=O)C[C@@](O)(C(=O)CO)CC3OC1CC(O)C(O)C(C)O1 (some centres undefined) , no comment.
Reply: 0.32

Query: Please tell me the measured log10 of TGI for `COCCN1CCN(Cc2ccc(-c3n[nH]c4c3C(=O)c3c(NC(=O)NN5CCOCC5)cccc3-4)cc2)CC1` ; system: HCC-2998 colon.
Reply: -0.56

Query: Please look at `N=C(N)c1ccc(-c2ccc(-c3cccs3)s2)s1` and tell me its recorded log10 of TGI on HCC-2998 colon.
Reply: 0.39

Query: Check HCC-2998 colon data and give log10 of TGI for `CCOC(=O)c1c(C)nc2c(c1N)CC(=O)N2CCc1ccccc1` .
Reply: 1.11

Query: # return log10 of TGI of `COc1cc(-c2cc(/C=C/C(=O)c3ccc(Cl)c(Cl)c3)[nH]n2)cc(OC)c1OC` (system: HCC-2998 colon)
Reply: 1.50

Query: Report the value of log10 of TGI obtained on HCC-2998 colon for `COc1cc([C@@]23OC[C@@H]4[C@@H](OC[C@@H]42)c2cc4c(cc23)OCO4)cc(OC)c1OC` .
Reply: -1.62

Query: # return log10 of TGI for `CCN(CC)c1ccc2cc(-c3nnc(-c4ccccc4O)o3)c(=O)oc2c1` , test system: HCC-2998 colon
Reply: 1.86

Query: # lookup: HCC-2998 colon log10 of TGI, key = CCOC(=O)[C@H]1Nc2ccc([N+](=O)[O-])cc2C2c3ccccc3CC21 (some centres undefined)
Reply: 1.65

Query: Enter measured log10 of TGI, system HCC-2998 colon, for the compound shown: Cc1ccc(C2=Nc3c(N)ncnc3NC(c3ccc4c(c3)OCO4)C2)cc1 (centres undefined)
Reply: 1.83

Query: Lab note: record log10 of TGI of `NC(=O)/C=c1/c2ccccc2n2nc3ccccc3c12` tested on HCC-2998 colon.
Reply: 1.57
